Entries annotated with measured IC50
- Target of assay: TBK1 (Homo sapiens, UniProt Q9UHD2)
- Construct: His-tag; made in house; host or cells: Sf9 insect cells
- Sequence (Q9UHD2 whole entry): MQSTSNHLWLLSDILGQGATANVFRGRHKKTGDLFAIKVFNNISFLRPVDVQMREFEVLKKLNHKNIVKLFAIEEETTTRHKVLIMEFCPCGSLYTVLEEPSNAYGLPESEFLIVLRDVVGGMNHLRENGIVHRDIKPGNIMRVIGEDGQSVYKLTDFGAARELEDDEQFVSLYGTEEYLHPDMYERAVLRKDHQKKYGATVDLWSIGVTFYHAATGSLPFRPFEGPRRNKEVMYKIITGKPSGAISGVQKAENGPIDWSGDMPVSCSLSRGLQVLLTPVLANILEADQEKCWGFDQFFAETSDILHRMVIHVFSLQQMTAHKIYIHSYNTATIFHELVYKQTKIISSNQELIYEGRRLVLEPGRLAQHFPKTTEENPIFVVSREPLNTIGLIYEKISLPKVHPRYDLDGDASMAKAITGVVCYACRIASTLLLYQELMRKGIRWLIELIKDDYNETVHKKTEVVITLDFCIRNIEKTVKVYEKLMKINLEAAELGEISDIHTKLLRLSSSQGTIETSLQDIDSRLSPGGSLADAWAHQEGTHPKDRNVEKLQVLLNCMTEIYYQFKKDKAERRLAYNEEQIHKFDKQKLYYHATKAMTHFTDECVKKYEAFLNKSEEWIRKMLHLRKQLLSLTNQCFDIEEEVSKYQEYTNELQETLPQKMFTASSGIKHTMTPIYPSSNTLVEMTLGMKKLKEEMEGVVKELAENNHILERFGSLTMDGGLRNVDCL
- Method summary: In-vitro TBK1 kinase assay ([γ33]ATP filter-plate)
- Assay type: biochemical
- Recorded conditions: text bins; read-out: IC50 for inhibition of the kinase activity of TBK1

These solved cases illustrate the format of a correct answer.
COc1cc(Nc2nccc(-c3ccc(OC4CCN(C(=O)CO)CC4)c(C#N)c3)n2)ccc1N1CCOCC1; < 10 nM
N#Cc1cc(-c2ccnc(Nc3ccc(N4CCOCC4)cc3)n2)ccc1NC(=O)C1C[C@@H]1F (stereo partly drawn); < 10 nM
CC(C)N1CCN(CCOc2cc(Nc3nccc(-c4ccc(OCC5CC5)c(C#N)c4)n3)ccc2F)CC1; < 10 nM

Input line: // lookup IC50 for Cc1ccc(Nc2nccc(-c3ccc(OC4CCOCC4)c(C#N)c3)n2)cc1OCCN1CCN(C(C)C)CC1
Output line: < 10 nM

Input line: What value of measured IC50 is listed for N#Cc1cc(-c2ccnc(Nc3ccc(CS(=O)(=O)N4CCOCC4)cc3)n2)ccc1OC1CCOCC1 ?
Output line: < 10 nM
